I'd be grateful if you could share measured activation for these entries.
# PROTOCOL TEXT: qHTS assay for environmental chemicals that activate the Aryl hydrocarbon Receptor (AhR) signaling pathway (AID 651777); note: % of control where 0% means no effect; nearly all actives have a fitted effect of over 15% in size
# MEASUREMENT CONDITIONS: 1A2-DRE human hepatoma cells, luciferase, 24 h; active compounds read high
Records with an inconclusive call do not appear.
Unit % implied. Number only.

Q: Which activation value is on record for CCCCCc1ccc(N)cc1 ?
A: 1.05

Q: Which activation value is on record for c1ccc(-c2ccc(-c3ccccc3)cc2)cc1 ?
A: 6.5

Q: Which activation value is on record for CCCCCCCCCCCC(=O)OC ?
A: 1.82

Q: Which activation value is on record for OCC(CO)(CO)COCC(CO)(CO)CO ?
A: 3.82

Q: Which activation value is on record for CCOCCOCCOCC ?
A: 0.117

Q: Which activation value is on record for CCCC[O][Al]([O]CCCC)[O]CCCC ?
A: 0.248

Q: Which activation value is on record for C/C=C/C=C/CCCCCCCO ?
A: -1.79

Q: Which activation value is on record for CC1(C)[C@@H](C=C(Cl)Cl)[C@@H]1C(=O)OCc1cccc(Oc2ccccc2)c1 ?
A: -0.62

Where these numbers come from: PubChem BioAssay (NCATS)
